Biological target: T1, CD123 (Homo sapiens (Human), UniProt P26951 19-305, limits assumed)
T1 construct: also called CD123-Signal
T1 sequence: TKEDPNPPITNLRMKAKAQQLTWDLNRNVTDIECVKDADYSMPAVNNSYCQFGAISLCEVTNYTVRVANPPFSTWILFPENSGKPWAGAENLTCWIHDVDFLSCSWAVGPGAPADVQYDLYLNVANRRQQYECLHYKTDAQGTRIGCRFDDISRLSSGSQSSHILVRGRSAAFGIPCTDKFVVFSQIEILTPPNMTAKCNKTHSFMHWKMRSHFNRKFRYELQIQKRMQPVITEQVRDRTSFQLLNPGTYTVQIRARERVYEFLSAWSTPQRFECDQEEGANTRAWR
Assay: ELISA, format not described
Design: unit not given here
Assign class by ELISA_avg: not lower than 9 means criterion met; lower than 9 means criterion not met.

Problem: Is the recorded value of ELISA_avg equal to or greater than 9 for this binder? D domain SEQ ID NO: 697 (designed binder) MGSWYEFESRLDAIVDRLWALGGSEAELAEFEYEIAKFEWELQDYKGKGNPEVEALNWEAGAIEFELYAYRHN
Solution: criterion not met

Problem: Let us now turn to D domain SEQ ID NO: 665 (designed binder) MGSWDEFDARLWAIEERLWALGGSEAELAEFEFMIAAFEDVLQEYKGKGNPEVEALMGEANAIVMELDAYRHN
Solution: criterion not met

Problem: Let us now turn to D domain SEQ ID NO: 660 (designed binder) MGSWYEFEQRLGAIEERLWALGGSEAELAAFEDIIAYFEYQLQSYKGKGNPEVEALDEEAWAIDDELWAYRHN
Solution: criterion met

Problem: Let us now turn to D domain SEQ ID NO: 728 (designed binder) MGSWWEFEDRLDAIEYRLFALGGSEAELAAFEKEIAAFESELQAYKGKGNPEVEFLREEAAFIRIFLQAYRHN
Solution: criterion not met

Problem: Let us now turn to D domain SEQ ID NO: 664 (designed binder) MGSWVEFWDRLDAIEERLWALGGSEAELAEFEFMIAMFEQHLQEYKGKGNPEVEALIPEAGAIDKELTAYRHN
Solution: criterion met

Problem: Let us now turn to D domain SEQ ID NO: 745 (designed binder) MGSWIEFEDRLYAIEDRLWALGGSEAELAAFEKEIAAFESELQAYKGKGNPEVEFLRYEAAEIRYWLQAYRHN
Solution: criterion not met

Problem: Let us now turn to D domain SEQ ID NO: 751 (designed binder) MGSWYEFYNRLDAIEDRLWALGGSEAELAAFEKEIAAFESELQAYKGKGNPEVEYLRQEAADIRGQLQAYRHN
Solution: criterion met

Problem: Let us now turn to D domain SEQ ID NO: 729 (designed binder) MGSWWEFESRLDAIFMRLTALGGSEAELAAFEKEIAAFESELQAYKGKGNPEVEDLREDAAFIREFLQAYRHN
Solution: criterion not met

Problem: Let us now turn to D domain SEQ ID NO: 682 (designed binder) MGSWWEFTDRLDAIFDRLWALGGSEAELAAFEESIAIFEQDLQYYKGKGNPEVEALEYEANAIQYELEAYRHN
Solution: criterion not met
